Listed next: entries and their corresponding protein stability index.
- testDetails: protein stability index of a GFP-peptide fusion (yeast GPS) (PSI 1-4); higher = more stable; sorted into four equal gates, so the index is relative within each strain
- measurementContext: pdr5∆
measureName: protein stability index

sequenceContent | observedResult
KSGKRKPNIILDEDDTN [RPC31] | 3.12
NNAVRFSKQCLISNAIY [ECM29] | 2.39
FTFGLTVVQVYDNGQVF [RPP0] | 1.3
MTIDDSNRLLMDVDQFD [YJR042W/NUP85] | 3.63
IGLRQFQQIQYENKQLY [POP1] | 2.81
YINGKATALANLRKSRG [RPO31] | 3.13
FQFKLLQSNSKLASTLE [SMC4] | 2.37
QANSNLTLLERKWVIFI [NUT1] | 1.92
PLSRINENENFGYDIPL [YML103C/NUP188] | 3.14
LREYLNLPEHIVPGTYI [RPS10A] | 3.08
DYQVQGLNWLISLHENK [ISW2] | 2.15
NYILNFKQSNSETFLQF [CDC53] | 1.43
DLPDTEGLELLGWIHTQ [PRP8] | 2.79
VLSIPPANHLQSDFCLS [YGL100W/SEH1] | 2.44
LDTYLPEDLNSLYIYYL [SIR2] | 2.45
AEQPLPVSPLDIYSDEA [RPS2] | 2.97
LGICTHLGCVPIGEAGD [RIP1] | 2.33
MGGVSALRGMFKDRFKD [FAS2] | 3.55
SKLDIYTQQQALEYIGA [RET1] | 2.23
YQKLFSQFINDHILFTK [SRB8] | 2.06
KLKQQSSTDIPSYTHVL [RRI1] | 2.48
VSTEGNVPQTLAPVPYE [RPL21A] | 3.02
DVEVDDDFTNELKAELD [SEM1] | 3.55
AFITQLESSITDAGVLA [YJL039C/NUP192] | 1.6
IACVLTVINEQQREAVR [RPL35A] | 2.12
KFLQEFINLLLNCCGSV [IRR1] | 1.74
STKLSRPFDSFGKLLQA [ITC1] | 2.67
TVIKFRAGVCEYNEDSR [RPN13] | 1.96
ILNEVFTNPSIVKVFHG [RRP6] | 1.42
KIMQSISNKDVIFKIRD [SRB4] | 2.91
DATRVFVNGVWHGVHRN [RPB2] | 3.35
EPFNAGIKYHATPPLKR [SMC1] | 3.12
TLSYDDISAAIVHSSDG [DLS1] | 2.82
GITYRREDMPFTAEGIV [RPB2] | 1.86
FRFQGGIIVAVDSRATA [PRE2] | 1.54
QPASYHSVQETNKISPK [SSN2] | 3.1
TNVSKQNDFLFSVGESL [ECM29] | 2.92
RIRKLTGQNFLTSNISS [REC8] | 1.79
SYALSMEKDKLKNLLRS [SNU114] | 2.24
ADDAISMHLLKDWTDTF [SRB8] | 2.94
HRLTLEDPVTVEYLTRY [PRE6] | 3.64
NISISTSELGNDDFSEV [BRR2] | 3.19
KTKYILQRPTATDEESV [CSN12] | 3.12
GNPTNISSPIVANSPNK [YDL088C/ASM4] | 2.06
IGDYILKSPVLSKLCVP [QCR7] | 1.36
LVHDGLARGLRESTKAL [RPS12] | 3.52
CWLSNIDIQTQDLNQRF [RRI1] | 3.23
QAQLRIDDKTQNDELTM [DIS3] | 2.6
YARADTHFLLNIYDQLR [RRP6] | 2.34
LVEKVYARFKNDFFPGE [ITC1] | 3.36
QLLIIEKEWENAIRIGE [SRP72] | 1.69
FQIPTNLDAAAAGTSQA [RPC10] | 2.83
AYSMGAQNQGGQVSMSQ [PGD1] | 3.2
TKSNRRVSHSDTNSSKP [SIR4] | 3.19
YFKLSITSFDQDVDDAH [POP8] | 1.95
LSRPYKALKTNINFASG [CDC53] | 2.61
YPVHEAHKGQIVLIKGI [SNU114] | 2.45
MRELGLIQSTEFPSITS [YOR098C/NUP1] | 3.29
YWQFNGVIALGQFVTLG [RMP1] | 2.79
EVRGQVPVIESAGFETD [SNU114] | 1.59

* * *

# protein stability index listing for each entry below
- testDetails: protein stability index of a GFP-peptide fusion (yeast GPS) (PSI 1-4); higher = more stable; sorted into four equal gates, so the index is relative within each strain
- measurementContext: doa10∆
measureName: protein stability index

sequenceContent | observedResult
DMAKLKKMMNTSDSEST [SWI3] | 1.81
LGSGSNVDVCVMEIGKD [PUP1] | 3.59
PLKFKLGPLSYQNMAFI [YJR042W/NUP85] | 2.42
ELAQYMKTNVHTQANEP [RGR1] | 2.81
EYVYFFNNTSVIQDEVL [RPC40] | 2.41
LIIRNDSLSGAVIAAIM [RPT3] | 3.17
SYALSMEKDKLKNLLRS [SNU114] | 2.97
STKSNKAKNPLTHSTPK [RPL8B] | 2.33
FKFSGTVSSDVFKLNPS [YLR335W/NUP2] | 3
QISIIDIWSISKKRQAE [YML031W/NDC1] | 2.32
SGNDSMAGKVLILTSHN [BRR2] | 2.13
ELSDSDRQIINEKMQLL [SIR4] | 2.76
RIENPEKYAAAAPAATS [RPP0] | 2.95
LLSDTFEVLAPKWERVF [RRI2] | 3.13
IIPSRMGEAQTGANFDD [REC8] | 1.93
TFQRVCQYMVACVPLLP [RPN1] | 2.5
EKLKVNMEKEKDRIIDE [YIL149C/MLP2] | 3.37
FLGALKYLPHAILKLLE [PRP8] | 2.12
PYAVLSQFYELRDREDW [YJR042W/NUP85] | 2.16
LLYELTAFKATVFFLIR [YJL039C/NUP192] | 2.32
PKFGVEGLIRLDNLTED [DIS3] | 2.97
SFALPFEEDEKNSDVWF [RPN8] | 3.28
ADVTSNIDSSAQFTFGK [YOR098C/NUP1] | 3.05
GIGSLTDLMSIVQELLD [RPC34] | 3.49
RQQKLLEDQQRQQKLLL [SWI1] | 3.2
QFNAQGVRDINCVNDVL [POP1] | 2.92
PILAPSVKDYRPAEETE [RPS3] | 3
RFRKLTSQEINDRLEAL [PRE8] | 3.07
SLIENKKAKLVLIANDV [RPL8B] | 2.32
IGVIAGGGRVDKPLLKA [RPL2A] | 3.2

* * *

- testDetails: protein stability index of a GFP-peptide fusion (yeast GPS) (PSI 1-4); higher = more stable; sorted into four equal gates, so the index is relative within each strain
- measurementContext: doa10∆
measureName: protein stability index

sequenceContent | observedResult
KCSTRGLSTDHTTQIVN [YML103C/NUP188] | 2.9
SFDAVSDSIELLKQYPK [YJR042W/NUP85] | 2.86
GQQSVEGKRIAFGFVDR [RPO21] | 3.25
EKKNDENSTSNSKPEKS [YLR335W/NUP2] | 3.24
TRSAKKMVIAELLPHYP [YJR042W/NUP85] | 2.83
QANIQLYSIREDYELSP [PRE1] | 2.96
KMENFEFLPLSLHILMI [SRB8] | 2.79
RAGVTHVLSRLSYISAL [RET1] | 1.47
SIVLDSEHFDVNDNPDI [DIS3] | 2.96
SMERKVQGAAPWDTSLE [MCD1] | 3.5
EVRRAAMLNLINDNNTR [YCG1] | 3.32
DLRLIKVPQQAAGKRIS [SMC1] | 1.36
VYNNSKDEYLAQLDGRI [NSL1] | 3.33
LEASLNSITKDNIDYAP [YJL039C/NUP192] | 2.7

* * *

Reported protein stability index by item:
- testDetails: protein stability index of a GFP-peptide fusion (yeast GPS) (PSI 1-4); higher = more stable; sorted into four equal gates, so the index is relative within each strain
- measurementContext: ubr1∆
measureName: protein stability index

sequenceContent | observedResult
PKYESLKLEYYNLLVKI [RPN5] | 1.24
SLLLTNVIITGSTSLIE [ARP7] | 1.39
KILNLEKPLILADYIVE [NUT1] | 1.3
TPVQPDLSVTPQKSSSK [YAR002W/NUP60] | 3.09
FNELCDPESRTQSYNNQ [POP1] | 2.96
LLIGCKLDQDDEIYIPI [CSI1] | 3.09
MTLEDNNVTSNPSEFTP [SSN2] | 3.16
FTTLLESKQDGLSILFL [YML103C/NUP188] | 3
RLIVDPNIADYITAKNN [PRP8] | 2.08
AKKTIQNPLNKSQNTAL [SIR4] | 3.08
MINGVYYNEISRDLDIS [POP6] | 1.76
LEKFLQGRDTSKLPDPE [SRP72] | 2.77
FTIVSLVQLKKFSDLKF [YML103C/NUP188] | 2.06
QQKLNTRMQRGHRADVG [REC8] | 3.3
